test: APR_HepG2_StressKinase_24hr: Apredica 24-hour HepG2 Assay for Stress Kinase (AID 2282922); conditions: HepG2 stress kinase (phospho-c-Jun) imaging, actives raise or lower the signal
Calls of active or inactive are those of the source. The calls were made as follows: active = hit-call score of the fitted dose curve at least 0.9, where 1 is the maximum; inactive = score below 0.9.
Outcome codes: active, inactive

molecule | class-label
CCOC(=O)c1ccc(C2CCC(NC[C@H](O)COc3ccc(O)c(NS(C)(=O)=O)c3)CC2)cc1 (some centres not stated) | active
CC(C)=CCC/C(C)=C/CO | inactive
CCOc1cccc(-n2cc(C(=O)N3CCN(c4cc(C(=O)O)c5ccccc5c4)CC3)nc2-c2ccc(C)cc2)c1 | inactive
CCOC(=O)CC(CC(=O)OCC)(OC(C)=O)C(=O)OCC | inactive
CN(C)c1ccc(N=NS(=O)(=O)O)cc1 | inactive
Cc1ccc(S(=O)(=O)O)cc1C | inactive
CC(C)CCO | inactive
CC[C@H]1CC[C@H](NCc2cc3c(cc2OC)[C@H]2C[C@H]2C(=O)N3C)[C@H](c2ccccc2)N1 | inactive
CCN(C(=O)c1cc(C)cc(OC[C@H](C)Nc2ccncc2)c1)C(C)C | inactive
O=C(O)CC(O)C(=O)O (configuration not stated) | inactive
COC(=O)c1c(Cl)c(Cl)c(C(=O)OC)c(Cl)c1Cl | inactive
CC[C@H]1OC(=O)[C@H](C)[C@@H](O[C@H]2C[C@@](C)(OC)[C@@H](O)[C@H](C)O2)[C@H](C)[C@@H](O[C@@H]2O[C@H](C)C[C@H](N(C)C)[C@H]2O)[C@](C)(O)C[C@@H](C)C(=O)[C@H](C)[C@@H](O)[C@]1(C)O | inactive
O=P(OC(CCl)CCl)(OC(CCl)CCl)OC(CCl)CCl | inactive
COc1ccc2sc(C(=O)Nc3nnn[nH]3)c(OC(C)C)c2c1 | inactive
C1N2CN3CN1CN(C2)C3 | inactive
C=CCCCCCCCCC(=O)O | inactive
O=C(O)CCN(C1(C(=O)NO)CCCC1)S(=O)(=O)c1ccc(Oc2ccc(F)cc2)cc1 | inactive
CCNc1ccccc1 | inactive
Clc1nc(Cl)c(Cl)c(Cl)c1Cl | active
CCCCCCCCO | inactive
CC[C@H](C)C(=O)O[C@H]1C[C@@H](C)C=C2C=C[C@H](C)[C@H](CC[C@@H]3C[C@@H](O)CC(=O)O3)[C@H]21 | inactive
CCn1nc(Cc2ccccc2)cc1C1CCN(C[C@H]2C[C@H](N(C)[C@@H](C(=O)O)C(C)C)C[C@@H]2c2cccc(F)c2)CC1 | inactive

----------
read-out: growth arrest and DNA damage 45 (GADD45B), GADD45B (gene 4616); assay: LTEA_HepaRG_GADD45B: Life Technologies and Expression Analysis (LTEA) Assay for growth arrest and DNA damage 45 (GADD45B) using HepaRG (AID 2283461); conditions: mRNA level, 48 h; actives raise or lower the signal
The source made the active and inactive calls. Rule for the calls: active = hit-call score of the fitted dose curve at least 0.9, where 1 is the maximum; inactive = score below 0.9.
Outcome codes: active, inactive

molecule | class-label
CCOCCO | inactive
CCCN(C1CCN(C(=O)C2CCNCC2)CC1)[C@@H]1CCc2ccc(OC)cc2C1 | inactive
Cc1c(-c2cccnc2)c2ccccc2n1CCCCC(=O)O | inactive
COc1ccc(/C=C/S(=O)(=O)NC(=O)c2ccc(C)cc2Cl)cc1 | inactive
O=c1n(CC2CO2)c(=O)n(CC2CO2)c(=O)n1CC1CO1 (centres undefined) | active
Nc1cccc(N)c1 | inactive
Nc1ccc(Nc2ccccc2)cc1 | active
Fc1ccccc1[C@@H](F)COC1CCC(Nc2ncnc3[nH]ncc23)CC1 (some centres undefined) | active
O=C(O)c1cc(N=Nc2ccc(S(=O)(=O)Nc3ccccn3)cc2)ccc1O | inactive
O=C(O)CC(O)C(=O)O (centres undefined) | inactive
CC[C@H](C)C(=O)O[C@H]1C[C@@H](C)C=C2C=C[C@H](C)[C@H](CC[C@@H]3C[C@@H](O)CC(=O)O3)[C@H]21 | inactive
Oc1ccc2c(c1)-c1ccccc1C2 | inactive
CCNc1ccccc1 | inactive
CC/C(=C\C(=N/O)C(N)=O)C(C)[N+](=O)[O-] (centres undefined) | inactive
CNS(=O)(=O)c1cc(C(=O)N2CCC(CCN3C4CCC3CC(n3c(C)nc5ccccc53)C4)(c3cccc(F)c3)CC2)c(Cl)cc1F (centres undefined) | inactive
COCCOCCOCCOC | inactive
CC(=O)OCCC(C)C | inactive
C1=CCCC=CCCC=CCC1 | inactive
O=C(OC[C@H]1O[C@@H](OC(=O)c2cc(O)c(O)c(OC(=O)c3cc(O)c(O)c(O)c3)c2)[C@H](OC(=O)c2cc(O)c(O)c(OC(=O)c3cc(O)c(O)c(O)c3)c2)[C@@H](OC(=O)c2cc(O)c(O)c(OC(=O)c3cc(O)c(O)c(O)c3)c2)[C@@H]1OC(=O)c1cc(O)c(O)c(OC(=O)c2cc(O)c(O)c(O)c2)c1)c1cc(O)c(O)c(OC(=O)c2cc(O)c(O)c(O)c2)c1 | inactive
C1N2CN3CN1CN(C2)C3 | inactive
O=C1CCC(N2C(=O)c3ccccc3C2=O)C(=O)N1 (centres undefined) | inactive
CNCc1ccc(NC(=O)c2c[nH]c3c2C(=O)CCC3)cc1 | inactive
CC(O)CN(CCN(CC(C)O)CC(C)O)CC(C)O (centres undefined) | inactive
CCCCCCCCCCCCCCCO | inactive

# credit: PubChem BioAssay (EPA / NIEHS)
